# study_system: FGFR2 (Homo sapiens (Human), UniProt P21802)
# Sequence (P21802 22-821): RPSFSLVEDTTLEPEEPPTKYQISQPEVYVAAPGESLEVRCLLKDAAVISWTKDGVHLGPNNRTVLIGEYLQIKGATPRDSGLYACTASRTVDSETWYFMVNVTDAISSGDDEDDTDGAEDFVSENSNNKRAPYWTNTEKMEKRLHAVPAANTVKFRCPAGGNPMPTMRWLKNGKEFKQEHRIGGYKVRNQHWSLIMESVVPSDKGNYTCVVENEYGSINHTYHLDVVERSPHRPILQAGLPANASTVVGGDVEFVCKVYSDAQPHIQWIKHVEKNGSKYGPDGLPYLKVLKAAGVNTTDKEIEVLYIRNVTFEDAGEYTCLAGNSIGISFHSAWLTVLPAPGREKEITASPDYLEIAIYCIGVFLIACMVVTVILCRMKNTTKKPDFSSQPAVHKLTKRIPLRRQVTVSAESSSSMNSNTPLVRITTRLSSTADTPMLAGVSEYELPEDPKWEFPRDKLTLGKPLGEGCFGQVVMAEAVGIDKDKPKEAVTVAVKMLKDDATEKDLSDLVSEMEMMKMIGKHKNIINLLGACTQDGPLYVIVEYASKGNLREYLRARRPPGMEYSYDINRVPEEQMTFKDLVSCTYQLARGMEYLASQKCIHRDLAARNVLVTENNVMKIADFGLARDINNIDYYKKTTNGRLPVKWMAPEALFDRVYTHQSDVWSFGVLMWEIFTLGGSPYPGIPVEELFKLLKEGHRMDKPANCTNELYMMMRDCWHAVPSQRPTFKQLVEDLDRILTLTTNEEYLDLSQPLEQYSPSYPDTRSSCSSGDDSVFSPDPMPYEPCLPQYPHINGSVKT
pIC50: −log10 of the molar value.

# input_smiles, pIC50
rows = [
    ("Cc1ccc(NC(=O)c2cccc(C(F)(F)F)c2)cc1CCc1cc(Nc2cnccn2)[nH]n1", 5.52),
]

* * *

# study_system: Fyn-NanoLuc fusion protein (Homo sapiens (Human), UniProt P06241)
# Sequence (P06241 whole entry, the tested form may be a part): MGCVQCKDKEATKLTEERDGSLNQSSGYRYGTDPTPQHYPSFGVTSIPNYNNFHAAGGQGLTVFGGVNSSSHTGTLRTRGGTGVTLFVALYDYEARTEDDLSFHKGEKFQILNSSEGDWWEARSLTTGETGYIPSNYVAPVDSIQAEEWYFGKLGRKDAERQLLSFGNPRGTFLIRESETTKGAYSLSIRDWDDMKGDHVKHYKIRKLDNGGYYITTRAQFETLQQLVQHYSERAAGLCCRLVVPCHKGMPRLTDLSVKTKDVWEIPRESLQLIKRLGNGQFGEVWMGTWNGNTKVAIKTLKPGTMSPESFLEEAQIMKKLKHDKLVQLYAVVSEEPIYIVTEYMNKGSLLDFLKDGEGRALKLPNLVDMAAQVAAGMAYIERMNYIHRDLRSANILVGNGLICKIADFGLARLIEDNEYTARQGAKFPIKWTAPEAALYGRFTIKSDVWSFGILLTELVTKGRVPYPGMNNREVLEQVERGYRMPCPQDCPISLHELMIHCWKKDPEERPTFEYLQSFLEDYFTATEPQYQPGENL
# measurement_notes: NanoBRET intracellular target engagement of Fyn in HEK293 transfected cells
# experimental_parameters: 2 hours treatment, tracer 0.33 μM, read-out: IC50 binding value towards the Fyn-NanoLuc fusion protein
assay_readout: IC50 (µM)

# input_smiles, study_system, value
rows = [
    ("Cc1ccc(NC(=O)c2cccc(C(F)(F)F)c2)cc1CCc1cc(Nc2cnccn2)[nH]n1", "Fyn-NanoLuc fusion protein (Homo sapiens (Human), UniProt P06241)", 1.5),
]

Data origin, for the record: patent US12509446B2
